Reference source: paper PMC3529809

# System: TFF1 (pS2), PGR (PR), CTSD (cathepsin D) transcription
# assay: QRT-PCR of endogenous ER-target genes in ERα-transfected HEK-293 cells
# Format: cell-based, human
# conditionsUsed: 10 nM E2 or 5 µM sterol, 24 h, Fig. 5A
measurementKind: CTSD (cathepsin D) expression

Below are worked cases with known answers.
> print(dat)
                                   compound                             targetofassay  reportedvalue
1  C[C@]12CC[C@@H]3c4ccc(O)cc4CC[C@H]3[C@@H]1CC[C@@H]2O [E2, 17β-estradiol, reference compound]  TFF1 (pS2), PGR (PR), CTSD (cathepsin D) transcription      increased
2  C[C@]12CC[C@H](O)CC1=CC[C@@H]1[C@@H]2CC[C@]2(C)C(=O)CC[C@@H]12 [DHEA, 3β-hydroxy-androst-5-ene-17-one]  TFF1 (pS2), PGR (PR), CTSD (cathepsin D) transcription      increased
3  C[C@]12CC[C@H](O)CC1=CC(=O)[C@@H]1[C@@H]2CC[C@]2(C)C(=O)CC[C@@H]12 [7-oxo-DHEA, 3β-hydroxyandrost-5-ene-7,17-dione]  TFF1 (pS2), PGR (PR), CTSD (cathepsin D) transcription  no activation
4  C[C@]12CC[C@H](OS(=O)(=O)O)CC1=CC[C@@H]1[C@@H]2CC[C@]2(C)C(=O)CC[C@@H]12 [DHEA-S, DHEA 3β-sulfate]  TFF1 (pS2), PGR (PR), CTSD (cathepsin D) transcription      increased

In the following, a different compound is considered.
In one line, give reported CTSD (cathepsin D) expression of the entry C[C@]12CC[C@H](O)CC1=CC[C@@H]1[C@@H]2CC[C@]2(C)C(=O)[C@H](O)C[C@@H]12 [16α-OH-DHEA, 16α-hydroxy-DHEA] .
no activation

---

# targetOfAssay: human ERβ (Homo sapiens, UniProt Q92731)
# Sequence (Q92731 whole entry): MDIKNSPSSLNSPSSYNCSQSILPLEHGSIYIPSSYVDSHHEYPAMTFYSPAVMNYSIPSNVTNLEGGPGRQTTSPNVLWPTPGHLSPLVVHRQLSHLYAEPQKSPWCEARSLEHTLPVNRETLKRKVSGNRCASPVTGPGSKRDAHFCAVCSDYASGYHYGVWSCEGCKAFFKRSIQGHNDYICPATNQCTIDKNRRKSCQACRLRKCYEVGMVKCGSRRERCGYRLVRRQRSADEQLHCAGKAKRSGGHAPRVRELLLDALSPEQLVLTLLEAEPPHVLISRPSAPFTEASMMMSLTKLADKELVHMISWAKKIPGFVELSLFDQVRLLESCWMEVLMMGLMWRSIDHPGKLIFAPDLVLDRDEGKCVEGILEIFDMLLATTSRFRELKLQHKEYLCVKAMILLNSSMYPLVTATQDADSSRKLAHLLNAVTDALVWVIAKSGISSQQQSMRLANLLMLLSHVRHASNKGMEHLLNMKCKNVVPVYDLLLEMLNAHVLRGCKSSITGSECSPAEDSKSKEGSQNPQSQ
# assay: ERELUC transient transfection reporter assay, ERβ in HepG2 cells
# Format: cell-based
# conditionsUsed: 5 µM, 24 h, Fig. 1B; result in words
measurementKind: ERELUC activity in ERβ-expressing HepG2 cells

> print(dat)
                                   compound          reportedvalue
1  C[C@]12CC[C@H](O)CC1=CC(=O)[C@@H]1[C@@H]2CC[C@]2(C)C(=O)CC[C@@H]12 [7-oxo-DHEA, 3β-hydroxyandrost-5-ene-7,17-dione]  significantly induced
2  C[C@]12CC[C@H](O)CC1=CC[C@@H]1[C@@H]2CC[C@]2(C)C(=O)CC[C@@H]12 [DHEA, 3β-hydroxy-androst-5-ene-17-one]  significantly induced
3  C[C@]12CCC(=O)CC1=CC[C@@H]1[C@@H]2CC[C@]2(C)C(=O)CC[C@@H]12 [ADIONE, androst-5-ene-3,17-dione]  significantly induced

---

# Tested on: MCF-7 human breast cancer cells
# assay: Cell proliferation BrdU assay
# Format: cell-based
# conditionsUsed: 48 h BrdU; 10 nM E2, 5 µM sterols; Fig. 7
measurementKind: MCF-7 cell proliferation

> print(dat)
                                   compound           measurementkind  reportedvalue
1  C[C@]12CC[C@H]3[C@@H](CC=C4C[C@@H](O)CC[C@@]43C)[C@@H]1CC[C@@H]2O [ADIOL, androst-5-ene-3β,17β-diol]  MCF-7 cell proliferation      increased
2  C[C@]12CC[C@H](O)CC1=CC[C@@H]1[C@@H]2CC[C@]2(C)C(=O)CC[C@@H]12 [DHEA, 3β-hydroxy-androst-5-ene-17-one]  MCF-7 cell proliferation      increased
3  C[C@]12CC[C@H](O)CC1=CC(=O)[C@@H]1[C@@H]2CC[C@]2(C)C(=O)CC[C@@H]12 [7-oxo-DHEA, 3β-hydroxyandrost-5-ene-7,17-dione]  MCF-7 cell proliferation      increased
4  C[C@]12CC[C@H](OS(=O)(=O)O)CC1=CC[C@@H]1[C@@H]2CC[C@]2(C)C(=O)CC[C@@H]12 [DHEA-S, DHEA 3β-sulfate]  MCF-7 cell proliferation      increased

Answer with reported MCF-7 cell proliferation of C[C@]12CCC(=O)CC1=CC[C@@H]1[C@@H]2CC[C@]2(C)C(=O)CC[C@@H]12 [ADIONE, androst-5-ene-3,17-dione]
increased

---

# targetOfAssay: human ERβ (Homo sapiens, UniProt Q92731)
measurementKind: IC50 (µM)
API: value field is a number in µM; no unit string.

> print(dat)
                                   molecule  measurementkind  reportedvalue
1  C[C@]12CC[C@H](O)CC1=CC[C@@H]1[C@@H]2CC[C@]2(C)C(=O)CC[C@@H]12 [DHEA, 3β-hydroxy-androst-5-ene-17-one]             IC50            500

Turning now to a further molecule:
Kindly indicate its recorded IC50. Item: C[C@]12CC[C@H](O)CC1=CC(=O)[C@@H]1[C@@H]2CC[C@]2(C)C(=O)CC[C@@H]12 [7-oxo-DHEA, 3β-hydroxyandrost-5-ene-7,17-dione]
500

---

# Test system: TFF1 (pS2), PGR (PR), CTSD (cathepsin D) transcription
# assay: QRT-PCR of endogenous ER-target genes in ERα-transfected HEK-293 cells
# Format: cell-based, human
# conditionsUsed: 10 nM E2 or 5 µM sterol, 24 h, Fig. 5A
measurementKind: PGR (PR) expression

Worked cases, answers included:
> print(dat)
                                   molecule  reportedvalue
1  C[C@]12CC[C@H](O)CC1=CC(=O)[C@@H]1[C@@H]2CC[C@]2(C)C(=O)CC[C@@H]12 [7-oxo-DHEA, 3β-hydroxyandrost-5-ene-7,17-dione]  no activation
2  C[C@]12CC[C@H](OS(=O)(=O)O)CC1=CC[C@@H]1[C@@H]2CC[C@]2(C)C(=O)CC[C@@H]12 [DHEA-S, DHEA 3β-sulfate]      increased
3  C[C@]12CC[C@@H]3c4ccc(O)cc4CC[C@H]3[C@@H]1CC[C@@H]2O [E2, 17β-estradiol, reference compound]      increased
4  C[C@]12CC[C@H](O)CC1=CC[C@@H]1[C@@H]2CC[C@]2(C)C(=O)[C@H](O)C[C@@H]12 [16α-OH-DHEA, 16α-hydroxy-DHEA]  no activation

Now take the following molecule into account.
Answer briefly: PGR (PR) expression recorded on TFF1 (pS2), PGR (PR), CTSD (cathepsin D) transcription for C[C@]12CC[C@H](O)CC1=CC[C@@H]1[C@@H]2CC[C@]2(C)C(=O)CC[C@@H]12 [DHEA, 3β-hydroxy-androst-5-ene-17-one]
increased
